- target or test system: SpHof1-3
- protocol summary: SPOT peptide array binding signal intensity (averaged, normalized) (arbitrary units (background-subtracted, floor 0; scale differs between SH3 domains)); higher = stronger binding of the SH3 domain to the peptide
readout label: SPOT peptide array binding signal intensity
Give the figure by itself; no unit, no explanation.

Examples with answers:
>>> df
            binder   val
0  DKSRPPRPPPKPLHL  90.8
1  EEEEEHPPLPARRKS     1
2  LFMKGTPEFPKSGFS    78
3  PSTMDFPKLPSFQNS    18
4  NLKKRPPTAPQRKIS  77.2
5  ALFRLSFFFPLDPAY  1850
6  VNFRRIPTGPDSPPT  0.75
7  SSAAPPPPPRRATPE   366

Give a short answer stating reported SPOT peptide array binding signal intensity for `APPLPPTAPPPPSLP` .
0.5

Write down SPOT peptide array binding signal intensity measured for item `NPNRRAPRRPLSTQH`
166

Could you please provide reported SPOT peptide array binding signal intensity for `NMLSRPRLAKLPSIR` ? Thanks!
1590

Look up and report measured SPOT peptide array binding signal intensity for this entry: `QRIRKIPGIPLMSVG`
440

Assign SPOT peptide array binding signal intensity to the following record: `NAGIRPKFILALNDE`
214
